Collected activation values appear next to each entry.
target: Steroidogenic factor 1 (Homo sapiens) (UniProt Q13285); experiment: SF-1 ligand-binding domain transactivation enhancers – cell-based, CHO-K1, Gal4-SF-1 LBD, luciferase luminescence, primary screen (AID 522); conditions: CHO-K1 Gal4-SF-1 LBD luciferase reporter; at 10 µM; stronger effect = higher value; % increase over DMSO SF-1-specific signal
Sequence (Q13285 whole entry, looked up, the tested form may be a part): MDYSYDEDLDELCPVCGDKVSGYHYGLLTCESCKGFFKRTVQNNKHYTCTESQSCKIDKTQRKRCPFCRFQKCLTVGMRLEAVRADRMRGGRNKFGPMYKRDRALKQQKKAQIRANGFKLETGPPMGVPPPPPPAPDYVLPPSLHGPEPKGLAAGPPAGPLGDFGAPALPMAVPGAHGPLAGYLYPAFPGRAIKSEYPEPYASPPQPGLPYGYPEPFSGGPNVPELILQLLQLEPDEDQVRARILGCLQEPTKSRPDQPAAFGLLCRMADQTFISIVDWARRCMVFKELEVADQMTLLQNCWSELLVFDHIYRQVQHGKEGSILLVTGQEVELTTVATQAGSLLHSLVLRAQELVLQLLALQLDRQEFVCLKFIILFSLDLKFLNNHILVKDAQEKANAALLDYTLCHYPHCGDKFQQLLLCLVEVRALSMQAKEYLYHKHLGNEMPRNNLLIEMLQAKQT
Screen size: about 65,000 compounds; about 1,200 (1.8%) were called active. The full list was thinned out, with actives kept by preference.
Assay Readout: activation (%)

1) CCN(CC)S(=O)(=O)c1cc(C(=O)Nc2ccccn2)ccc1C | 49.3
2) O=C(c1cccc(C(=O)N2CCc3ccccc32)n1)N1CCc2ccccc21 | -0.8
3) CCc1nnc(NC(=O)CSc2nnc(COc3ccc(C#N)cc3)n2-c2ccccc2)s1 | 0.6
4) Cc1cccc(NC(=O)c2ccccc2NC(=O)C(C)(C)C)n1 | -22.9
5) COCCCNC(=O)Cn1cc(C(=O)C2CC2)c2ccccc21 | 1.7
6) CC(=O)Nc1ccn(Cc2c(F)cccc2Cl)n1 | 42.1
7) CC(=O)N1CCC(C(=O)Nc2nc(-c3ccccc3)ns2)CC1 | -1.6
8) O=C1C(=O)N(CCN2CCOCC2)C(c2ccccn2)/C1=C(/O)c1ccc(Cl)cc1 (stereo unspecified) | -1.6
9) CCCCOC(=O)c1ccc(N2C(=O)CC(N3CCN(C/C=C/c4ccccc4)CC3)C2=O)cc1 (stereo unspecified) | -6.3
10) Cc1occc1C(=O)N1CCCc2ccccc21 | -7.2
11) OC(COc1ccc2ccccc2c1)CN1CCOCC1 (stereo unspecified) | 39.4
